Endpoint: melting point (°C)
Hi! Could you send only the number? It should be in °C, unit omitted.

QUERY: Entry O=C(NNc1ccccc1)c1nn(-c2ccc(F)cc2)c2c1C1CCC2C1 (stereo not drawn) needs its melting point filled in; supply it.
RESULT: 163

---
QUERY: Entry CC(C)(NC(=O)c1nn(-c2ccc(Cl)cc2)c2c1C1CC3CC(C1)CC2C3)c1ccccc1 needs its melting point filled in; supply it.
RESULT: 181

QUERY: Entry O=C(NN(c1ccccc1)c1ccccc1)c1nn(-c2ccc(Cl)cc2)c2c1C1CC3CC(C1)CC2C3 needs its melting point filled in; supply it.
RESULT: 214

QUERY: Entry CN(NC(=O)c1nn(-c2ccc(Cl)cc2)c2c1C1CC3CC(C1)CC2C3)C1CCCCC1 needs its melting point filled in; supply it.
RESULT: 219

QUERY: Entry O=C(NNc1ccccc1F)c1nn(-c2ccc(Cl)cc2)c2c1C1CCC2C1 (stereo not drawn) needs its melting point filled in; supply it.
RESULT: 91

QUERY: Entry O=C(NCc1ccccn1)c1nn(-c2ccc(Cl)cc2)c2c1C1CC3CC(C1)CC2C3 needs its melting point filled in; supply it.
RESULT: 187

QUERY: Entry O=C(NC1CCCCC1)c1nn(-c2ccc(F)cc2F)c2c1C1CCC2C1 (stereo not drawn) needs its melting point filled in; supply it.
RESULT: 119

QUERY: Entry O=C(NNc1ccccc1Br)c1nn(-c2ccc(Cl)cc2Cl)c2c1C1CCC2C1 (stereo not drawn) needs its melting point filled in; supply it.
RESULT: 159

---

Entries annotated with measured inhibition at 1 µM
# System: CB1 (Rattus norvegicus, UniProt P20272)
# Sequence (P20272 whole entry): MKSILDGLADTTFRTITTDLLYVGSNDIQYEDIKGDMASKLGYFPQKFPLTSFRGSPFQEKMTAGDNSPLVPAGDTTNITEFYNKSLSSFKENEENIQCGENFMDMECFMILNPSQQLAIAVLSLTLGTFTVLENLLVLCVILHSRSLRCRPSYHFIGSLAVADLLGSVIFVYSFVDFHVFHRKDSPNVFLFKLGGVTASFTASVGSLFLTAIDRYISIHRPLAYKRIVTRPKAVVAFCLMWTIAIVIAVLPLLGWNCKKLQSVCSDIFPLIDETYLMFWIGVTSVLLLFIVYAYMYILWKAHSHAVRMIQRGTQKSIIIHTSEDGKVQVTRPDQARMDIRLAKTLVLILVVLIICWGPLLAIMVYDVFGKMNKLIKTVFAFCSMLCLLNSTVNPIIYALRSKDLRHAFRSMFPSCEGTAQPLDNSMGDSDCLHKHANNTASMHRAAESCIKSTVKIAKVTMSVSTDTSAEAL
# Assay method text: GTPγS binding assay, CB1 functional assay in rat cerebellar membrane (Protocol VIII)
# Type: biochemical
# Design: 10 μg rat cerebellum membrane; from tissue; host or cells: rat cerebellum membrane, prepared in-house
# Assay conditions: GTPγS binding, tested at 1 uM in presence of 1 μM WIN 55,212-2; read-out: % Inhibition of WIN-55212-2 induced stimulation
Report field: quantity (unit follows the number).

QUERY: Provide the reported inhibition at 1 µM (system: CB1 (Rattus norvegicus, UniProt P20272)) for O=C(NNc1cccc(F)c1)c1nn(-c2ccc(Cl)cc2)c2c1C1CCC2C1 (centres unmarked) [Example 233]
RESULT: 79.5%

QUERY: Provide the reported inhibition at 1 µM (system: CB1 (Rattus norvegicus, UniProt P20272)) for O=C(NNc1ccc(F)cc1F)c1nn(-c2ccc(Cl)cc2)c2c1C1CC3CC(C1)CC2C3 [Example 132]
RESULT: 89.2%

QUERY: Provide the reported inhibition at 1 µM (system: CB1 (Rattus norvegicus, UniProt P20272)) for O=C(NCc1ccc(F)cc1)c1nn(-c2ccc(Cl)cc2Cl)c2c1C1CC3CC(C1)CC2C3 [Example 172]
RESULT: 115%

QUERY: Provide the reported inhibition at 1 µM (system: CB1 (Rattus norvegicus, UniProt P20272)) for O=C(NN1CCCCC1)c1nn(-c2ccc(Cl)cc2Cl)c2c1C1CCC2c2ccccc21 (centres unmarked) [Example 502]
RESULT: 91.1%

---
QUERY: Provide the reported inhibition at 1 µM (system: CB1 (Rattus norvegicus, UniProt P20272)) for O=C(NN1CCCCC1)c1nn(-c2ccc(Cl)cc2Cl)c2c1C1CCC2C1 (centres unmarked) [Example 268]
RESULT: 55.3%
